The measured values listed here are drawn from patent US20060276464A1.

# subject-of-test: UniProtKB Q8N474
# Sequence (Q8N474 32-314): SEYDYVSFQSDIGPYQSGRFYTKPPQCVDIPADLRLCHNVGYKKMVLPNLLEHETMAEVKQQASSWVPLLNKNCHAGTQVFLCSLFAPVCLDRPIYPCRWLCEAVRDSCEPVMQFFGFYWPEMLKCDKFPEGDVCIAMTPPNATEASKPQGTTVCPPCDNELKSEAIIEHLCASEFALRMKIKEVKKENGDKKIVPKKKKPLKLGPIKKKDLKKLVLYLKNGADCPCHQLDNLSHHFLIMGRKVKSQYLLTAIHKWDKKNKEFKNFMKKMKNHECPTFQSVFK
# assay-info: Cell-based assay for in vitro measurement of SFRP-1/SARP2 antagonist activity (U2OS cells co-transfected with 16x TCF-tk-Luciferase reporter, Wnt and hSFRP-1)
# conditions-used: U2OS, read-out: Fold Induction with SFRP-1, U2OS cells, single dose 10 μM, luciferase reporter, fold induction over SFRP-1 control

# compound, fold induction at 10 µM
records = [
    ("O=S(=O)(NCCn1ccnc1)c1cc(S(=O)(=O)c2ccccc2)ccc1C(F)(F)F [Example 739]", 5.1),
    ("CN(CCNS(=O)(=O)c1cc(S(=O)(=O)c2ccccc2)ccc1C(F)(F)F)C(=O)c1ccc(C(C)(C)C)cc1 [Example 838]", 2.5),
    ("O=C(O)CCC(=O)N1CCC(NS(=O)(=O)c2cc(S(=O)(=O)c3ccccc3)ccc2C(F)(F)F)C1 (stereo not shown) [Example 886]", 2.7),
    ("C[C@@H](NS(=O)(=O)c1cc(S(=O)(=O)c2ccccc2)ccc1Cl)[C@H](O)c1ccccc1 (relative stereo) [Example 676]", 2.6),
]

* * *

# subject-of-test: SFRP-1 (Homo sapiens, UniProt Q8N474)
# Sequence (Q8N474 32-314): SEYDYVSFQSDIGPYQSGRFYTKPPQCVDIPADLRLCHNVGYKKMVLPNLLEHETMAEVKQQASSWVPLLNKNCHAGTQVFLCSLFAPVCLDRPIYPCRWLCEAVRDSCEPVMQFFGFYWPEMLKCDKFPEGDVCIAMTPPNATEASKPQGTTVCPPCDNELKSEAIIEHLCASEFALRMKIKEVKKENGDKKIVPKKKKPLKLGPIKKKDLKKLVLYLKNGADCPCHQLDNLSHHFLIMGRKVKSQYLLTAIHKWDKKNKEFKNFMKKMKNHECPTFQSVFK
# assay-info: Cell-based assay for in vitro measurement of SFRP-1/SARP2 antagonist activity (U2OS cells co-transfected with 16x TCF-tk-Luciferase reporter, Wnt and hSFRP-1);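 further: U2OS cells co-transfected with a TCF-tk luciferase reporter, a Wnt vector, hSFRP-1 or empty vector and CMV-βgal, luciferase luminescence read in cell lysates alongside βgal activity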
# conditions-used: U2OS, read-out: Fold Induction with SFRP-1, Conc 15 μM; single dose; luciferase reporter, fold induction over SFRP-1 control; cells with SFRP-1
Kindly note that classification relies on fold induction at 15 µM with these boundaries: b0 (below 2), b1 (2 to below 3), b2 (3 or more)

# compound, cat
rows = [
    ("CC(C)c1cc(C(C)C)c(S(=O)(=O)c2ccc(F)cc2)cc1S(=O)(=O)NCCc1ccccc1 [Example 619]", "b0"),
    ("CC(C)c1ccc(S(=O)(=O)c2ccc(N3C[C@@H](C)N[C@@H](C)C3)cc2)cc1S(=O)(=O)NC1CCOCC1 [Example 626]", "b1"),
    ("CCCc1ccc(S(=O)(=O)c2ccccc2)cc1S(=O)(=O)NC1CCN(C(=O)OC(C)(C)C)CC1 [Example 558]", "b0"),
    ("Cc1cccc(S(=O)(=O)c2ccc(Cl)c(S(=O)(=O)NC3CCOCC3)c2)c1 [Example 604]", "b1"),
    ("COc1ccccc1OC(=O)N1CCC(NS(=O)(=O)c2cc(S(=O)(=O)c3ccccc3)ccc2C)CC1 [Example 489]", "b1"),
    ("CC(C)c1ccc(S(=O)(=O)c2ccc(F)cc2)cc1S(=O)(=O)NCCc1ccncc1 [Example 533]", "b2"),
    ("N#CCCNS(=O)(=O)c1cc(S(=O)(=O)c2ccccc2)ccc1Cl [Example 643]", "b2"),
    ("N#CN1CCC(NS(=O)(=O)c2cc(S(=O)(=O)c3ccccc3)ccc2Cl)CC1 [Example 651]", "b1"),
    ("CC(=O)c1cccc(S(=O)(=O)c2ccc(C(C)C)c(S(=O)(=O)NCCc3ccccn3)c2)c1C [Example 594]", "b1"),
    ("CN(CCc1ccccn1)S(=O)(=O)c1cc(S(=O)(=O)c2ccccc2)ccc1Cl [Example 646]", "b0"),
    ("O=C(N1CCC(NS(=O)(=O)c2cc(S(=O)(=O)c3ccccc3)ccc2Cl)CC1)C(F)(F)F [Example 647]", "b2"),
    ("CC(C)c1ccc(S(=O)(=O)c2ccc(F)cc2)cc1S(=O)(=O)NCCc1ccc[n+]([O-])c1 [Example 652]", "b2"),
    ("CC(C)(C)OC(=O)NC1CCN(S(=O)(=O)c2cc(S(=O)(=O)c3ccccc3)ccc2Cl)CC1 [Example 639]", "b0"),
    ("CCCc1ccc(S(=O)(=O)c2ccccc2)cc1S(=O)(=O)NCC1CCOCC1 [Example 552]", "b1"),
]
